Consider the following molecules and their measured GI50 readings.
System: SF-295
protocol details: NCI tumour cell line growth inhibition, 48 h
Active and inactive are the calls of the source. Rule as the data show it: active = GI50 up to about 1.1 µM and inactive = higher.

molecule: COC1C(OC(=O)/C=C/C=C/C=C/C=C\C(=O)O)CCC2(CO2)C1C1(C)OC1CC=C(C)C (stereo not given)
GI50: > 100 µM (inactive)
--
molecule: CCC1NC(=O)C1NC(=O)OC (stereo not given)
GI50: > 100 µM (inactive)
--
molecule: CN1CCN(c2cc3[nH]c(-c4ccc(Cl)cc4)nc3cc2F)CC1
GI50: 15.2 µM (inactive)
--
molecule: O=C(Nc1ccc2[nH]c(C(=O)N3CC(CCl)c4ccc([N+](=O)[O-])cc43)cc2c1)c1cc2ccccc2o1 (stereo not given)
GI50: 716 µM (inactive)
--
molecule: Cn1c(=O)c2c(nc3n2CC(=O)N3CCCCl)n(C)c1=O
GI50: > 100 µM (inactive)
--
molecule: Cc1ccc2nc3c(=O)[nH]c(=O)nc-3n(C)c2c1C
GI50: > 100 µM (inactive)
--
molecule: COC[n+]1cc2cc(OC)c(OC)cc2c2ccc3cc(OC)c(OC)cc3c21
GI50: > 100 µM (inactive)
--
molecule: COc1ccc(/C=N/NC(=O)CSc2nc(-c3ccccc3)c(-c3ccccc3)[nH]2)cc1OC
GI50: 24.2 µM (inactive)
--
molecule: O=C(/C=C/c1ccccc1O)c1ccc([N+](=O)[O-])cc1
GI50: 21.7 µM (inactive)
--
molecule: C(=C\Nc1ccc(Oc2ccccc2)cc1)/C=N/c1ccc(Oc2ccccc2)cc1
GI50: 15.9 µM (inactive)

---

Test system: SF-539
protocol details: NCI tumour cell line growth inhibition, 48 h
The source made the active and inactive calls. Cut-off read from the data, not from the text of the source: active = GI50 up to about 1.1 µM and inactive = higher.
observed property: GI50

compound: CN(C)C(c1ccccc1)C1COC2Cc3ccccc3C1O2 (configuration not stated)
observed value: > 100 µM (inactive)

compound: c1ccc2c(c1)nnn2CNc1ccc(N2CCOCC2)cc1
observed value: > 100 µM (inactive)

compound: C=C1CC(C)(COc2ccc3c(C)c(C)c(=O)oc3c2C)OC1=O (configuration not stated)
observed value: 2.24 µM (inactive)

compound: Cc1ccc2nc3ccccc3c(C3C4C(=O)N(c5ccc(F)cc5)C(=O)C4ON3C(C(N)=O)c3ccccc3)c2c1 (configuration not stated)
observed value: 27.6 µM (inactive)

compound: CCCCC[C@H]1CC=CC(=O)O1
observed value: 1.56 µM (inactive)

compound: C(=C/c1nc2ccccc2o1)/c1ccc2c(c1)OCO2
observed value: 16.6 µM (inactive)

compound: COc1ccc(N(C)C(=O)N(C)c2ccc([N+](=O)[O-])cc2)cc1
observed value: 29.6 µM (inactive)

compound: CCN1CCC(O)(/C=C/c2ccc(C)cc2C)C(C(=O)/C=C/c2ccc(C)cc2C)C1 (configuration not stated)
observed value: 1.92 µM (inactive)

compound: COC(=O)c1cc2c(s1)C(=O)c1ccccc1-2
observed value: > 100 µM (inactive)

compound: O=C1c2ccccc2C(=O)c2c1ccc(O)c2O [ATHRAQUINONES A]
observed value: 42.6 µM (inactive)

compound: CC(C)Oc1cccc(N2C(n3ccnc3)=Nc3ccncc3S2(=O)=O)c1
observed value: 6.31 µM (inactive)

compound: COC(=O)[C@]12CC[C@H]3CC[C@H]([C@H]31)[C@H](c1ccccc1)N2
observed value: 16.5 µM (inactive)

compound: O=C1N=NC(=O)N1c1cc(C(F)(F)F)cc(C(F)(F)F)c1
observed value: 4.86 µM (inactive)

compound: O/N=C1/CCCCCC1NO (configuration not stated)
observed value: > 100 µM (inactive)

compound: CC1=NC(=O)C(C)(c2ccccc2)N1CCc1ccccc1 (configuration not stated)
observed value: 85.3 µM (inactive)

compound: COc1ccc([C@@]23CCC(=O)C[C@@H]2N(C)CC3)cc1OC
observed value: > 100 µM (inactive)

compound: CCN(CC)CCCNc1c2c(Cl)cc(Cl)cc2nc2nc(O)nc(C)c12
observed value: > 100 µM (inactive)

compound: C/C=C/C1=C(Cl)C(=O)[C@@H](Cl)[C@@]1(O)C(=O)OC [(+)-CRYPTOSPORIPSIN]
observed value: 2.19 µM (inactive)

compound: CCCCCCc1cc2cc(C(=O)Nc3nc(C45CC6CC(CC(C6)C4)C5)cs3)c(=O)oc2cc1O
observed value: 10.8 µM (inactive)

compound: NC(Cc1ccnnc1)C(=O)O (configuration not stated)
observed value: > 100 µM (inactive)

compound: C#CCN(Cc1ccc2nc(-c3ccccc3)c(Cl)nc2c1)c1cc(OC)c(OC)c(OC)c1
observed value: > 100 µM (inactive)

compound: COc1ccc(-c2csc3c2[N+]2(C)C=CC=C2C3N2CCCC2)cc1 (configuration not stated)
observed value: 17.7 µM (inactive)

compound: CCOc1ccc(NC(=O)C(=O)CC(=O)c2c(C)[n+]([O-])c3ccccc3[n+]2[O-])cc1
observed value: > 100 µM (inactive)

compound: CC(C)COC(=O)c1ccc(/N=C\c2ccc(/C=N/c3ccc(C(=O)OCC(C)C)cc3)cc2)cc1
observed value: > 100 µM (inactive)

compound: COC(=O)/C=C(\C)CC/C=C(\C)CCC1OC1(C)C (configuration not stated)
observed value: 13.5 µM (inactive)

compound: CC(C)Cc1ccc(C(C)/C=C2\CCC(CN(C)C)C2=O)cc1 (configuration not stated)
observed value: 16.5 µM (inactive)

compound: CN(C)CCO/N=C1/C=C2CC[C@H]3[C@@H]4CC[C@H](O)[C@@]4(C)CC[C@@H]3[C@@]2(C)CC1
observed value: 3.51 µM (inactive)

compound: COc1cc2c(cc1O)c(O)cc1c3cc(OC)c(OC)cc3c[n+](C)c21
observed value: 3.65 µM (inactive)

compound: CC(C)(Oc1ccccc1)C(=O)Sc1c(-c2ccccc2)c(=O)n(-c2ccccc2)c(=S)n1-c1ccccc1
observed value: 23.8 µM (inactive)

compound: COC1C(OC(=O)/C=C/C=C/C=C/C=C\C(=O)O)CCC2(CO2)C1C1(C)OC1CC=C(C)C (configuration not stated)
observed value: > 100 µM (inactive)

compound: O=C1N(C2CCCCC2)CC12CCCCC2
observed value: > 100 µM (inactive)

compound: COc1c(Br)cc(Br)c(OC)c1-c1[nH]c(Br)c(Br)c1Br
observed value: 9.98 µM (inactive)

compound: CCOC(=O)c1csc(NC(=O)CCN2CCCCC2)n1
observed value: > 100 µM (inactive)

compound: COc1ccc(OC)c(N2CC(N)C2=O)c1 (configuration not stated)
observed value: > 100 µM (inactive)

compound: CCOC(=O)c1cccnc1C(OC(C)=O)OC(C)=O
observed value: > 100 µM (inactive)

compound: CNc1nc(C(N)=O)c(N)s1
observed value: > 100 µM (inactive)

compound: Nc1nc(Cl)cc(NCCCCCCCCCCNc2cc(Cl)nc(N)n2)n1
observed value: 22.1 µM (inactive)

compound: C[C@]12CC/C(=N\O)C=C1CC[C@@H]1[C@@H]2CC[C@]2(C)C(=N/O)/C(=C/c3ccc([N+](=O)[O-])cc3)C[C@@H]12
observed value: 10.4 µM (inactive)

compound: C[n+]1c(-c2ccc(/C=N/Nc3ccnc(N/N=C/c4ccc(-c5cn6ccccc6[n+]5C)cc4)n3)cc2)cn2ccccc21
observed value: 20 µM (inactive)

compound: COc1ccc(OC)c2c(Nc3ccc(S(=O)(=O)O)c4cc(S(=O)(=O)O)cc(S(=O)(=O)O)c34)cc(C)nc12
observed value: > 100 µM (inactive)

compound: Cc1ccc2nc3c(=O)[nH]c(=O)nc-3n(C)c2c1C
observed value: > 100 µM (inactive)

compound: COc1ccc(-c2c(C#N)c(O)n(C3OC(CO)C(O)C(O)C3O)c(=S)c2C#N)cc1 (configuration not stated)
observed value: > 100 µM (inactive)
